Cited source for all entries: ChEMBL document CHEMBL1201862

tested on: RPMI-8226; assay: NCI tumour cell line growth inhibition, 48 h
Calls of active or inactive are those of the source. Rule as the data show it: active = GI50 up to about 1.1 µM and inactive = higher.
Choose one outcome from this list and give only that: active, inactive

Reference set (4 entries):
- compound: "O=C(CC(=O)c1cccc2ccccc12)C(=O)Nc1ccc(Cl)cc1"
  assigned_class: "inactive"
- compound: "CC(C)C1=CC(=O)[C@@](C)(C2[C@H](O)C[C@@]3(C)[C@@H]4CC=C5[C@@H](CC[C@@H](OC6OCC(O)C(O)C6OC6OC(C)C(O)C(O)C6O)C5(C)C)[C@]4(C)C(=O)C[C@]23C)O1 (stereo not given in full)"
  assigned_class: "inactive"
- compound: "CCCCCCCCCCCCCCCCCc1nc(C#N)c(N)o1"
  assigned_class: "inactive"
- compound: "CC(C)N1CCN(c2ccncc2S(=O)(=O)N2CCCCC2)CC1"
  assigned_class: "inactive"

Per the records of this test, what outcome belongs to COc1ccc2[nH]c3c(C)c4ccnc(NCCCN(C)CCCNc5ccc6ncn7c8ccccc8c(=O)c5c67)c4c(C)c3c2c1 ?
active

====

system: OVCAR-4; assay: NCI tumour cell line growth inhibition, 48 h
Calls of active or inactive are those of the source. No stated cut-off is given here; in the data, active = GI50 up to about 1.1 µM and inactive = higher.
parameter_measured: GI50

- compound: "CO/C=C(/C(=O)OC)c1ccccc1[C@@H]1CC1c1cccc(F)c1 (stereo partly specified)"
  assay_system: "OVCAR-4"
  GI50: "20.2 µM (inactive)"
- compound: "Fc1cccc(CSc2ncnc3c2ncn3C2CCCS2)c1 (stereo unspecified)"
  assay_system: "OVCAR-4"
  GI50: "23.4 µM (inactive)"
- compound: "O=C(CCc1ccc(O)c(O)c1)OCCc1ccccc1"
  assay_system: "OVCAR-4"
  GI50: "29.6 µM (inactive)"
- compound: "CC1(C)OC[C@@H](O)[C@H](Br)CO1"
  assay_system: "OVCAR-4"
  GI50: "> 100 µM (inactive)"

Hey, quick one: what's GI50 for each of these?
1. COc1cc(/C=C2/C(=O)N(C(=O)OC(C)C)C(Cc3cc(OC)c(OC)c(C)c3OC)C(=O)N2Cc2ccccc2)c(OC)c(C)c1OC (stereo unspecified)
2. C[C@]12CC[C@H](O[C@@H]3O[C@H](CO[C@@H]4O[C@H](CO)[C@@H](O)[C@H](O)[C@H]4O)[C@@H](O)[C@H](O)[C@H]3O)C[C@@H]1CC[C@@H]1[C@@H]2CC[C@]2(C)[C@@H](C3=CC(=O)OC3)CC[C@]12O [UZARIN]
3. O=C1C=C(Br)c2c(-c3ccccc3)oc3cccc1c23

["20.9 µM (inactive)", "17.3 µM (inactive)", "7.5 µM (inactive)"]

For every item in the list below, what is its measured GI50?
1. CC(=O)OCCCCn1cnc2c(Cl)nc(Nc3ccccc3)nc21
2. O=C(O)c1ccccc1-c1ccccc1C(=O)Nc1ccc2c(c1)Cc1cc(F)ccc1-2
3. CN=S(=O)(C[C@]1(O)CC2OC1C1OC(C)(C)OC21)c1ccccc1 (stereo partly specified)

1. > 100 µM (inactive)
2. 25.9 µM (inactive)
3. > 100 µM (inactive)

====

system: EKVX; test: NCI tumour cell line growth inhibition, 48 h
Activity calls are given as the source filed them. Rule as the data show it: active = GI50 up to about 1.1 µM and inactive = higher.
parameter_measured: GI50

Field: example entries. Status: answers known.
- compound: "COc1ccc(NC(=O)C(=O)NO)c(OC)c1"
  GI50: "14.9 µM (inactive)"
- compound: "CCOC(=O)NC(=O)c1cn(CCCOC(=O)CCCCCCCCC(=O)OCCCn2cc(C(=O)NC(=O)OCC)c(=O)[nH]c2=O)c(=O)[nH]c1=O"
  GI50: "38.1 µM (inactive)"
- compound: "CC1=C(O)C(=O)C=C2C1=CC=C1[C@@]2(C)CC[C@@]2(C)C3C[C@@H](C)C(=O)[C@@H](O)[C@]3(C)CC[C@]12C (some centres undefined)"
  GI50: "2.08 µM (inactive)"
- compound: "CC(C)N1CCN(c2ccncc2S(=O)(=O)N2CCCCC2)CC1"
  GI50: "> 100 µM (inactive)"
- compound: "O=C(O)C1CC2C3CCC2C1C3=O (centres undefined)"
  GI50: "> 100 µM (inactive)"

I'm hoping you can list GI50 for every compound here, please.
1. CNNC(=NS(=O)(=O)c1cc(C#N)c(NNC)cc1S)NNC
2. O=C(CC(=O)c1cccc2ccccc12)C(=O)Nc1ccc(Cl)cc1
3. Cc1c2c(n(CCN(C)C)c1C)NN=C(C#N)S2(=O)=O
4. Clc1ccc(C2=C(c3ccccc3)C(c3ccc(Cl)cc3)N3C(=N[C@H]4CCCC[C@@H]43)N2)cc1 (some centres undefined)
5. CCc1nnc(CC)n1NCCCC(=O)O
6. Cc1ccc2c(=O)c(C(=O)Nn3c(C)csc3=S)c[nH]c2n1
7. CN=S(=O)(C[C@]1(O)CC2OC1C1OC(C)(C)OC21)c1ccccc1 (some centres undefined)

> 10 µM (inactive)
> 100 µM (inactive)
> 100 µM (inactive)
12.4 µM (inactive)
> 100 µM (inactive)
> 100 µM (inactive)
> 100 µM (inactive)

I'm hoping you can list GI50 for every compound here, please.
1. CCOC(=O)/C=C(/C(=O)OCC)n1ccc(=O)n(CC(=O)OCC)c1=O
2. O=C(OC(=C(c1ccccc1)c1ccccc1)N1CCCC1=S)C(c1ccccc1)c1ccccc1

1.89 µM (inactive)
> 10 µM (inactive)

====

test system: PC-3; assay: NCI tumour cell line growth inhibition, 48 h
Calls of active or inactive are those of the source. No stated cut-off is given here; in the data, active = GI50 up to about 1.1 µM and inactive = higher.
Provide the reported GI50 of each item.

- compound: "CN(CCCNC(=O)c1n[nH]c2c1ccc1ccccc12)CCCNC(=O)c1n[nH]c2c1ccc1ccccc12"
  assay_system: "PC-3"
  recorded_value: "14.7 µM (inactive)"
- compound: "CC1=C2c3c(C)ccc4ccc(C)c(c34)C2(O)C(C)C1=O (stereo not given)"
  assay_system: "PC-3"
  recorded_value: "32.7 µM (inactive)"
- compound: "COc1c(-c2nc3ccc(N4CCN(C)CC4)nc3[nH]2)cc(OC)c2c1nc(CCl)n2C"
  assay_system: "PC-3"
  recorded_value: "11.2 µM (inactive)"

Lab note: each compound below needs its GI50 filled in.
1. CC(C)N1CCN(c2ccncc2S(=O)(=O)N2CCCCC2)CC1
2. O=C1c2n[nH]nc2C(=O)c2n[nH]nc21
3. C[C@@]12CCC(=O)C=C1CC[C@H]1C2=CC[C@]2(C)C1CC[C@@]2(C)O (stereo not given in full)
4. [O-][S+]1SC(=S)C2C=CC=NC21 (stereo not given)
5. O=C(NO)c1cccc(OCc2ccc(Br)cc2)c1
6. c1cc2n(n1)CCN2

["> 100 µM (inactive)", "> 100 µM (inactive)", "41.5 µM (inactive)", "16.8 µM (inactive)", "5.89 µM (inactive)", "1160 µM (inactive)"]

Parameters: items (list). Returns: GI50 for each item.
1. CN(Cc1ccccc1)c1cc(=O)n(C)c(=O)[nH]1
2. COc1ccccc1-c1nc(O)c2ccccc2n1
3. CCCCCCCCCCCCCCCCCCNC(=S)N/C=C1/C(=O)C=C(C)OC1=O
4. Nc1c(C(=O)c2ccc(Cl)cc2)[nH]c(Nc2ccc(Cl)cc2)c1C(=S)Nc1ccccc1
5. O=C(CCc1ccc(O)c(O)c1)OCCc1ccccc1
6. CC(C)CC(NC(=O)C(CCI)Cc1ccccc1)C(=O)Nc1ccccc1 (stereo not given)

> 100 µM (inactive)
> 100 µM (inactive)
17 µM (inactive)
10.6 µM (inactive)
> 100 µM (inactive)
51.1 µM (inactive)

====

test system: SF-268; test: NCI tumour cell line growth inhibition, 48 h
The source made the active and inactive calls. No stated cut-off is given here; in the data, active = GI50 up to about 1.1 µM and inactive = higher.
Answer with one of the outcomes given here: true (1) (active), false (0) (inactive)

Before answering, review these 5 worked examples.
- compound: "C/N=C(\\Nc1cccc(C(F)(F)F)c1)SCc1ccc(N=C=S)cc1"
  assigned_class: "false (0)"
- compound: "Cc1c2cc[n+](C)cc2c(C)c2c1[nH]c1ccc(Cl)cc12"
  assigned_class: "true (1)"
- compound: "COc1ccccc1-c1nc(O)c2ccccc2n1"
  assigned_class: "false (0)"
- compound: "O=C(O)c1ccccc1C1c2ccc(Cl)cc2Oc2cc(Cl)ccc21"
  assigned_class: "false (0)"
- compound: "C#CCOC(=O)C(=[N+]=[N-])C(=O)CC(C)C"
  assigned_class: "false (0)"

Give the logged outcome of this assay for the following compound: CCC(=O)OC1CCn2c1nc1c2C(=O)C(C)=C(NC(C)=O)C1=O (centres undefined)
false (0)

Test call, this compound: CC(C)(Oc1ccc2c(=O)cc(-c3ccc(Cl)cc3)oc2c1)C(=O)Nc1c(Cl)cccc1Cl
false (0)

Can you look up the reported call for CCc1nnc(CC)n1NCCCC(=O)O for me?
false (0)

// return assay outcome for CCN(CC)CCO/N=C1\CC[C@H]2[C@@H]3CC=C4C[C@@H](O)CC[C@]4(C)[C@H]3CC[C@]12C
false (0)
